# protocol text: self-splicing fitness, log relative to wild type (ln ratio); higher = more splicing; Tetrahymena group I intron in knt gene, E. coli kanamycin selection, DiMSum; sequences stand for … in CUCUCU…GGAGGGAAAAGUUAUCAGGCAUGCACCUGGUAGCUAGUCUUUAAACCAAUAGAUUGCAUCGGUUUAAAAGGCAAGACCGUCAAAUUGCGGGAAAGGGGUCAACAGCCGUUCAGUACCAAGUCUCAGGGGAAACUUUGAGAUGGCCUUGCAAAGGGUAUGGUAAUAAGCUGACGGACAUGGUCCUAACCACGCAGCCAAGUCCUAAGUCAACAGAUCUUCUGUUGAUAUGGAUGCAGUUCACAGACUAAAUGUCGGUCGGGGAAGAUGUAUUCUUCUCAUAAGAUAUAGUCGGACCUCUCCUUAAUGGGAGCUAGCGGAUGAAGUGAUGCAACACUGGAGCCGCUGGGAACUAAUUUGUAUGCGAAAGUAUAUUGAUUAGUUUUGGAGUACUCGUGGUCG;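 also: selection with 25 µg/mL kanamycin versus none on LB agar overnight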
# conditions used: 37 °C
Label yes (1) when self-splicing fitness (ln) is at or above -0.9; otherwise label no (0).

Could you verify whether the entry `GAUCAGCAAUAUUACGGGGU` shows self-splicing fitness (ln) of no less than -0.9?
no (0)

Could you do the same for `UCAAAGCAAUAUUACGAAAA` , please?
no (0)

What would you report for `GCCCAGCAAUAUUACGCUUA` ?
yes (1)

Same lookup for `ACAGAGCAAUAUUACGUCGC` , please.
no (0)

Can you check `UAAUAGCAAUAUUACGUAAC` next?
no (0)

Now the sequence `GAAAAGCAAUAUUACGCGUU`
no (0)

And then `AGUUAGCAAUAUUACGACAU` , what is it?
yes (1)

Entry to check: `CCCUAGCAAUAUUACGACCA`
no (0)

Entry to check: `AGCUAGCAAUAUUACGCGAC`
no (0)

Also need `ACGUAGCAAUAUUACGCUCU` , thanks.
yes (1)

Queued: `AGGCAGCAAUAUUACGUUGC`
no (0)

Record: `AUAAAGCAAUAUUACGAUAA`
yes (1)

Try `ACACAGCAAUAUUACGACGC` next.
yes (1)

Another sequence: `GCAUAGCAAUAUUACGUUAA`
no (0)

Field entry: `AGAAAGCAAUAUUACGCCAG`
yes (1)

====

# protocol text: self-splicing fitness, log relative to wild type (ln ratio); higher = more splicing; Tetrahymena group I intron in knt gene, E. coli kanamycin selection, DiMSum; sequences stand for … in CUCUCU…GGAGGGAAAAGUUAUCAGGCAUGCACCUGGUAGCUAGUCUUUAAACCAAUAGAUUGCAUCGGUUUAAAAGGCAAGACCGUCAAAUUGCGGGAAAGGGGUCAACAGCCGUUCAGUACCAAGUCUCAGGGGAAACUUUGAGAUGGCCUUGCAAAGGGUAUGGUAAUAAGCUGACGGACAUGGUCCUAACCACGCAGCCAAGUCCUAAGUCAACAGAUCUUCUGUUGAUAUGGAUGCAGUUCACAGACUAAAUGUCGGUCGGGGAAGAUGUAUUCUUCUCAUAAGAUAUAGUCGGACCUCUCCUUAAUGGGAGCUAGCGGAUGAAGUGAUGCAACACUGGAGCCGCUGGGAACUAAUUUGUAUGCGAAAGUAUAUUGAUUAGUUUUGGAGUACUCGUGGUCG
# conditions used: 30 °C
Please enter yes where self-splicing fitness (ln) is greater than or equal to -0.8, and no where it is lower.

Is it the case that `UCUUAGCAAUAUUACGAUGG` has self-splicing fitness (ln) reaching or exceeding -0.8?
yes

Also `UAAUAGCAAUAUUACGGCGU` ?
no

Repeat with `UGAUAGCAAUAUUACGGCUA`
yes

Would you kindly repeat that for `UGAUAGCAAUAUUACGUUAU` ?
no

Moving on to the next sequence: `UUCAAGCAAUAUUACGUGGG`
no

Entry to check: `UUUAAGCAAUAUUACGGCUA`
yes

Next sequence: `GCUAAGCAAUAUUACGGAAC`
no

How about `AUAGAGCAAUAUUACGACUU` ?
yes

Please answer likewise for `UCUGAGCAAUAUUACGUAUG`
no

Try this sequence too: `CCUCAGCAAUAUUACGCCGA`
no

Further, for `CGUAAGCAAUAUUACGACAG` ?
yes

Here is the next sequence: `UCUGAGCAAUAUUACGGGGU`
no

# iterate: `UAGCAGCAAUAUUACGGUAA`
no

Would you kindly repeat that for `ACAUAGCAAUAUUACGGGCA` ?
no

Same for `CAUCAGCAAUAUUACGGUCG`
yes

Can you handle `AUAAAGCAAUAUUACGCUGG` next?
no

====

# protocol text: self-splicing fitness, log relative to wild type (ln ratio); higher = more splicing; Tetrahymena group I intron in knt gene, E. coli kanamycin selection, DiMSum; sequences stand for … in CUCUCU…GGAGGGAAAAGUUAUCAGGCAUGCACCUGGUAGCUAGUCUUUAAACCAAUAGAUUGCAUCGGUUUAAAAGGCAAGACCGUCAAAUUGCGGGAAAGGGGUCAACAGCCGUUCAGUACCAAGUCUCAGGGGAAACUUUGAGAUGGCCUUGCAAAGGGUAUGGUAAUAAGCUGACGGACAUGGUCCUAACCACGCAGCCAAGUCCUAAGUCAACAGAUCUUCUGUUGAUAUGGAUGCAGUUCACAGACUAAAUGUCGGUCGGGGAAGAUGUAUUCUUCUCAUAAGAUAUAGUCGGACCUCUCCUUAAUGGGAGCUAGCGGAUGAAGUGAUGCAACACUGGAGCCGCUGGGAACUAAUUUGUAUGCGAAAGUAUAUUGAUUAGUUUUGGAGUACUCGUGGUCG
# conditions used: 30 °C
Decide using self-splicing fitness (ln): a value greater than or equal to -3 is Y, a smaller one is N.

Does the reported self-splicing fitness (ln) for `AGCAAGCAAUAUUACGAACA` fall at or above the -3 mark?
Y

Also, `UCUAAGCAAUAUUACGUCUG` please.
Y

And the next one, `UCGCAGCAAUAUUACGACAG` ?
Y

Thanks! And `UCUUAGCAAUAUUACGAAGU` ?
Y

Ok, now `GUACAGCAAUAUUACGACCG`
Y

And what about the sequence `UAUCAGCAAUAUUACGGCGU` ?
Y

Entry to check: `ACCAAGCAAUAUUACGCUAC`
Y

Same again, this time with `UCAGAGCAAUAUUACGUUUC`
N

Query `GCAAAGCAAUAUUACGGGGG` next
N

Now try `AUUGAGCAAUAUUACGAAAU` .
N

Now the same for `CACAAGCAAUAUUACGAUCU`
Y

// repeat for `GACUAGCAAUAUUACGGAAC` and report
Y

Thanks! And `CAACAGCAAUAUUACGGGGU` ?
N

Repeat with `ACCAAGCAAUAUUACGGGCC`
Y

Note, next up: `GAGUAGCAAUAUUACGCACA`
Y

Consider next the sequence `AGCGAGCAAUAUUACGCCCA` in the same way.
Y

====

Would you kindly list self-splicing fitness (ln) for each of these sequences?
# protocol text: self-splicing fitness, log relative to wild type (ln ratio); higher = more splicing; Tetrahymena group I intron in knt gene, E. coli kanamycin selection, DiMSum; sequences stand for … in CUCUCU…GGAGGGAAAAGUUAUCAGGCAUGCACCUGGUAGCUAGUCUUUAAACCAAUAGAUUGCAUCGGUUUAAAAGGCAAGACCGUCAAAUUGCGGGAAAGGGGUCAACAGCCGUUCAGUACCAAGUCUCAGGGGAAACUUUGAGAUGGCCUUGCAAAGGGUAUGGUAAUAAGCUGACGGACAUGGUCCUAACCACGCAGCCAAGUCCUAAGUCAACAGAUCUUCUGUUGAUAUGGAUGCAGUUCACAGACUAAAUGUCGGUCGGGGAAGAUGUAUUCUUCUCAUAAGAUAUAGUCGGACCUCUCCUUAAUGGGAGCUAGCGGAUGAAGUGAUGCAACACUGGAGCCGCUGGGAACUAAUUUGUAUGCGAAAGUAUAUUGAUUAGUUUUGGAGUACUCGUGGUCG
# conditions used: 30 °C
Give the figure only, with no unit attached.

Field request: self-splicing fitness (ln) | item: `AAACAGCAAUAUUACGUGAA`
-1.92

Try the sequence `CAAAAGCAAUAUUACGAACG`
0.409

And what about the sequence `GUGUAGCAAUAUUACGCUUC` ?
-2.71

What do you get for `AUCGAGCAAUAUUACGUUGA` ?
-3.44

Let us now turn to `AAUUAGCAAUAUUACGUUCU`
-0.609

Then this sequence: `GUAUAGCAAUAUUACGCCCA`
-1.33

Try the sequence `AAAAAGCAAUAUUACGCCGG`
-1.62

Also need `ACACAGCAAUAUUACGACGC` , thanks.
-0.0854

How about `AUGAAGCAAUAUUACGGGGA` ?
-2.4

Same again, this time with `CGAGAGCAAUAUUACGCGGA`
-2.34

What do you get for `GAUUAGCAAUAUUACGCACU` ?
-0.846

Let us now turn to `GCAAAGCAAUAUUACGUUUU`
-2.95

What would you report for `GCAUAGCAAUAUUACGGUCA` ?
-0.966

Okay, and `CUGAAGCAAUAUUACGAUUA` ?
-2.6

Again, but for `GAUGAGCAAUAUUACGAGGU`
-2.66

Also `GGUAAGCAAUAUUACGUAUA` ?
-1.77
